Reported values of Activity for individual entries
tested on: Pseudomonas fluorescens; experiment: Antibacterial activity against Pseudomonas fluorescens after 24 hrs by MTT assay; type: functional
Give your result in µg/mL as a bare value.

Example cases with answers are listed next.
NC[C@H]1O[C@H](O[C@H]2[C@H](O)[C@@H](O[C@H]3O[C@H](CO)[C@@H](O)[C@H](N)[C@H]3O)[C@H](N)C[C@@H]2N)[C@H](O)[C@@H](O)[C@@H]1O = 3.13
Oc1ccc(F)cc1/C=N/CC1CCCCC1 = 6.25

Kindly note the recorded Activity for Oc1ccc(F)cc1/C=N/CCN1CCOCC1 , which is 25

---

tested on: Pseudomonas fluorescens; test: Antibacterial activity against Pseudomonas fluorescens after 24 hrs by MTT assay; format: functional
Recorded metric: Activity (µg/mL)
Give your result in µg/mL as a bare value.

Example cases with answers are listed next.
Oc1ccc(F)cc1/C=N/c1ccccn1 = 100
Oc1ccc(F)cc1/C=N/c1ccccc1F = 6.25
Oc1ccc(F)cc1/C=N/C1CCCCC1 = 12.5

Shifting focus to the compound that follows.
Form field, Activity with Pseudomonas fluorescens, item Cc1ccc(/N=C/c2cc(F)ccc2O)cc1 : 50
